Please respond with reported growth for every item in the list.
System: CAKI-1 renal
protocol-details: NCI-60 one-dose screen, 48 h (100 = growth as untreated, 0 = no growth, -100 = all killed)
settings: 10 µM unless noted
Compounds without any hit were thinned out: in the full panel of roughly 83,000, 20% have a hit.
Output spec: scalar in %, unitless text.

Query: Bench note: what growth did Cc1ccc(NC(=O)CNc2cc(C(N)=O)cc(F)c2C)c(Cl)c1 show?
Reply: 62.6

Query: Bench note: what growth did COc1cc(-c2nn(C(C)(C)C)cc2-c2ccnc(NCCCNS(=O)(=O)c3ccc(C)cc3)n2)ccc1Cl show?
Reply: 27.4

Query: Bench note: what growth did Cc1ccc(N2C(=O)/C(=C/C=C/c3ccco3)SC2=S)cc1 show?
Reply: 90.4

Query: Bench note: what growth did Cn1cc(-c2nnc(N)nc2-c2c[nH]c3ccc(F)cc23)c2cc(F)ccc21 show?
Reply: 76.4

Query: Bench note: what growth did CC1(COc2ccc3ncc(C#Cc4cncc(C(=O)Nc5cccc(C(F)(F)F)c5)c4)n3n2)COC1 show?
Reply: 81.7

Query: Bench note: what growth did N#Cc1cccc(CN2CCc3ncn(Cc4ccc(Cl)cc4)c(=O)c3C2)c1 show?
Reply: 10.7

Query: Bench note: what growth did Nc1nc(Nc2ccccc2SSc2ccccc2Nc2nc(N)nc(-c3ccccc3)n2)nc(-c2ccccc2)n1 show?
Reply: 25.2

Query: Bench note: what growth did Cc1ccc2sc3c(c2c1)OC(N)=C(C#N)C3c1cccc(F)c1 (stereo unspecified) show?
Reply: 16.5

Query: Bench note: what growth did Oc1cccc2ccc(-c3nnc(SCc4ccc(O)c5ncccc45)o3)nc12 show?
Reply: 8.28

Query: Bench note: what growth did Cc1ccc2sc3c(c2c1)OC(N)=C(C#N)C3c1ccc(Cl)cc1 (stereo unspecified) show?
Reply: 60.4

Query: Bench note: what growth did O=C(CCn1c[n+](CC(=O)c2ccc(F)cc2)c2ccccc21)Nc1cccc2cccnc12 show?
Reply: 99.9

Query: Bench note: what growth did Cc1ccc(-n2cc(/C=N/NC(=O)c3nc(N)n[nH]3)c(-c3ccc(S(C)(=O)=O)cc3)n2)cc1 show?
Reply: 92.6

Query: Bench note: what growth did CCOc1cccc(-c2nc3sccn3c2-c2ccnc(S(C)(=O)=O)n2)c1 show?
Reply: 86.3

Query: Bench note: what growth did CCC(NC(c1cc2cccc3ccc4cccc1c4c32)c1nnnn1C(C)(C)C)C1CCCCC1 (stereo unspecified) show?
Reply: 63.1

Query: Bench note: what growth did C#CCOC(=O)[C@@H]1CCCN1CC#C show?
Reply: 76.3

Query: Bench note: what growth did CS(=O)(=O)Nc1cc(-c2ccc3ncc(C#N)c(Nc4cccc(Cl)c4F)c3c2)cnc1Cl show?
Reply: -5.21

meta.source: PubChem BioAssay (NCI)
